- measured-target: XIAP-BIR3 (Homo sapiens, UniProt P98170)
- Construct: 40 nM of XIAP-BIR3 for 15 min at RT
- Sequence (P98170 241-356 limits assumed): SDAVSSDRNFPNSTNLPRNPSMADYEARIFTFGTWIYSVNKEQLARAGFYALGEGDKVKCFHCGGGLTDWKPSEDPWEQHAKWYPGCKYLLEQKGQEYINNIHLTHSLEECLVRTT
- measurement-description: XIAP BIR-3 fluorescence polarization binding assay
- conditions-used: Example 9 series; read-out: KD Range
pKd: −log10 of the molar value.
endpoint: pKd

Prompt: What value of measured pKd is listed for `CN[C@@H](C)C(=O)N[C@H](C(=O)N1CCC[C@H]1Cc1cn(CCOCCn2cc(C[C@@H]3CCCN3C(=O)[C@@H](NC(=O)[C@H](C)NC)C3CCCCC3)c3ccc(F)cc32)c2cc(F)ccc12)C1CCCCC1` ?
Completion: > 7.00

Prompt: Now this one: `CC[C@H](NC)C(=O)N[C@H](C(=O)N1CCC[C@H]1Cc1cn(CCOCCn2cc(C[C@@H]3CCCN3C(=O)[C@@H](NC(=O)[C@H](CC)NC)[C@@H](C)O)c3cc(F)ccc32)c2ccc(F)cc12)[C@@H](C)O`
Completion: 6.00 to 7.00

Prompt: Now this one: `CN[C@@H](C)C(=O)N[C@H](C(=O)N1CCC[C@H]1Cc1cn(CCOCCn2cc(C[C@@H]3CCCN3C(=O)[C@@H](NC(=O)[C@H](C)N)C3CCCCC3)c3ccccc32)c2ccccc12)C1CCCCC1`
Completion: > 7.00

Prompt: Now this one: `CN[C@@H](C)C(=O)N[C@H](C(=O)N1CCC[C@H]1Cc1cn(CCOCCn2cc(C[C@@H]3CCCN3C(=O)[C@@H](NC(=O)[C@H](C)NC)[C@@H](C)O)c3ccc(F)cc32)c2cc(F)ccc12)[C@@H](C)O`
Completion: > 7.00

Prompt: Now this one: `CN[C@@H](C)C(=O)N[C@H](C(=O)N1CCC[C@H]1Cc1cn(CCOCCn2cc(C[C@@H]3CCCN3C(=O)[C@@H](NC(=O)[C@H](C)NC)C3CCCCC3)c3cc(F)ccc32)c2ccc(F)cc12)C1CCCCC1`
Completion: > 7.00

src = patent US9187490B2
